Data provenance: patent US10508120B2

assay.system: human TYK2 (JH2domain-pseudokinase) (Homo sapiens (Human), UniProt P29597)
Sequence (P29597 556-888): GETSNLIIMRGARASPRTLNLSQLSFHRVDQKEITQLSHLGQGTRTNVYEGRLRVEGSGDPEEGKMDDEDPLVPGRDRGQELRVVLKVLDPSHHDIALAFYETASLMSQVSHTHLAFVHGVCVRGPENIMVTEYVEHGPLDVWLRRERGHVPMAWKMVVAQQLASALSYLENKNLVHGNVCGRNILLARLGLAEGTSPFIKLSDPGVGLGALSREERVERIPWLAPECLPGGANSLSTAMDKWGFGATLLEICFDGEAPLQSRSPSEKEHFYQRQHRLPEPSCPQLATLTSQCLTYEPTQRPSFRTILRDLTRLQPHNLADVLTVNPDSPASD
assay.details: TYK2 JH2 Domain Binding Assay (KINOMEscan)
quantity.name: Kd

Please review the following examples before continuing.
{"molecule": "CNc1cc(Nc2cccn(C(C)C)c2=O)nc2c(C(=O)N[C@@H]3CC[C@@H]3O)cnn12 [I-978]", "value.observed": "0.2 to 1 nM"}
{"molecule": "CNc1cc(Nc2cccn(C3=NC(C)(C)CS3)c2=O)nc2c(C(=O)NC3CCC3)cnn12 [I-503]", "value.observed": "0.2 to 1 nM"}
{"molecule": "CNc1cc(Nc2cccn([C@@H]3CCC[C@H](OC)C3)c2=O)nc2c(C(=O)N[C@H]3CC[C@@H]3OC)cnn12 [I-1083]", "value.observed": "1 to 10 nM"}

Could you now consider this next molecule?
Give a short answer stating reported Kd for CNc1cc(Nc2cccnc2OC2CC2)nc2c(C(=O)N[C@@H]3CC[C@@H](O)C3)cnn12 [I-490] . < 0.2 nM

###

Each entry below lists one item and its recorded Kd value.
assay.system: human TYK2 (JH2domain-pseudokinase) (Homo sapiens (Human))
assay.details: TYK2 JH2 Domain Binding Assay (KINOMEscan)

{"compound": "CNc1cc(-c2cn([C@@H]3CCCOC3)c3ncccc23)nc2c(C(=O)N[C@H]3COC[C@H]3O)cnn12 [I-1250]", "Kd": "200 to 1000 pM"}
{"compound": "CNc1cc(Nc2cccnc2O[C@H]2CC[C@H](OC)CC2)nc2c(C(=O)NC3CC3)cnn12", "Kd": "200 to 1000 pM"}
{"compound": "CNc1cc(Nc2cc(C)cnc2OC(C)C)nc2c(C(=O)NC3CC3)cnn12", "Kd": "200 to 1000 pM"}
{"compound": "CNc1cc(Nc2cccn3ccnc23)nc2c(C(=O)N[C@@H]3COC[C@@H]3O)cnn12", "Kd": "200 to 1000 pM"}

Entry CNc1cc(Nc2cccn(C3=NC(C)(C)CS3)c2=O)nc2c(C(=O)N[C@@H]3C[C@@H]3F)cnn12 needs its Kd filled in; supply it. 200 to 1000 pM

// Input: CNc1cc(Nc2cccn(-c3ccccn3)c2=O)nc2c(C(=O)N[C@@H]3CC[C@@H]3O)cnn12 [I-743] . Output its Kd only. < 200 pM

###

assay.system: Tyk2/JAK2 (heterodimeric complex) (Homo sapiens (Human), UniProt P29597)
Sequence (P29597 whole entry, other chains not shown): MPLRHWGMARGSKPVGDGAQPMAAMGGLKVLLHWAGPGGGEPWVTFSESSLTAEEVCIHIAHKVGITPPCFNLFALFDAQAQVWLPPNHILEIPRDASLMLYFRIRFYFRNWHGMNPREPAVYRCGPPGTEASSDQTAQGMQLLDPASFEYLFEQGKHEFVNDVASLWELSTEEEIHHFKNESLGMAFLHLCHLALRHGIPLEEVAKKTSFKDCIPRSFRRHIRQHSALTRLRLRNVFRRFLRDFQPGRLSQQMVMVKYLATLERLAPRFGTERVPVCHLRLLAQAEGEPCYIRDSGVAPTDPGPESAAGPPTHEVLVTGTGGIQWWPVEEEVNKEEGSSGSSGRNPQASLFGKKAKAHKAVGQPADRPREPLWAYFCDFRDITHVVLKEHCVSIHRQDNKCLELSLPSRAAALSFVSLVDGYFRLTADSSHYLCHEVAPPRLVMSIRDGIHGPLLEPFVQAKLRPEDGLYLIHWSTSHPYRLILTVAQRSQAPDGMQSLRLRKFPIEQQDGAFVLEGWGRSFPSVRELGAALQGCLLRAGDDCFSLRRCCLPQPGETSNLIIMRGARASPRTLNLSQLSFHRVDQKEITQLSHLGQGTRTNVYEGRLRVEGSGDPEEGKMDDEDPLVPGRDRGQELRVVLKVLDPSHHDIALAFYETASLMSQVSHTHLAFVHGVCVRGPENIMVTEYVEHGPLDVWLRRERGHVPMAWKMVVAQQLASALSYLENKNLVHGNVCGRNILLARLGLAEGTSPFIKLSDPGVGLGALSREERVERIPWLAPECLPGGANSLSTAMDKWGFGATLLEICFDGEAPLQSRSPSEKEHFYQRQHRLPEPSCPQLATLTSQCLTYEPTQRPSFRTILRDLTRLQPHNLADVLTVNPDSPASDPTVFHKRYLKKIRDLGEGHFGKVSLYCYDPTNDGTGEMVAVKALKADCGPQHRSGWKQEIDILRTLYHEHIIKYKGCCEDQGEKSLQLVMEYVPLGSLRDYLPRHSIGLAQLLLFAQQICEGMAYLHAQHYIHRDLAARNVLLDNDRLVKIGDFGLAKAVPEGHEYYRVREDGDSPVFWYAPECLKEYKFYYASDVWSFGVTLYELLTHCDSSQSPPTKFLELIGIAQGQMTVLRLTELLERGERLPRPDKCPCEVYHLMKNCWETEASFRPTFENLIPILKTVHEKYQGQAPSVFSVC
assay.details: IL-12 Induced pSTAT4 in Human PBMC
measurement.conditions: 1.7 ng/mL IL-12
quantity.name: IC50

Here is how some compounds turned out for IC50.
{"compound": "[2H]C([2H])([2H])Oc1ncc(F)cc1Nc1cc(NC)n2ncc(C(=O)NC3CC3)c2n1 [I-284]", "value.observed": "< 100 nM"}
{"compound": "CNc1cc(Nc2cccn(-c3nn(C)cc3C)c2=O)nc2c(C(=O)N[C@H]3C[C@H]3F)cnn12 [I-405]", "value.observed": "100 to 500 nM"}

Give the reported value of IC50 for this record: [2H]C([2H])([2H])Oc1ncc(C)cc1Nc1cc(NC)n2ncc(C(=O)NC3CC3)c2n1 [I-258] < 100 nM

Identify IC50 associated with the compound CNc1cc(Nc2cccn(-c3cn(C)nc3F)c2=O)nc2c(C(=O)N[C@H]3C[C@H]3F)cnn12 [I-607] < 100 nM
